Target sequence: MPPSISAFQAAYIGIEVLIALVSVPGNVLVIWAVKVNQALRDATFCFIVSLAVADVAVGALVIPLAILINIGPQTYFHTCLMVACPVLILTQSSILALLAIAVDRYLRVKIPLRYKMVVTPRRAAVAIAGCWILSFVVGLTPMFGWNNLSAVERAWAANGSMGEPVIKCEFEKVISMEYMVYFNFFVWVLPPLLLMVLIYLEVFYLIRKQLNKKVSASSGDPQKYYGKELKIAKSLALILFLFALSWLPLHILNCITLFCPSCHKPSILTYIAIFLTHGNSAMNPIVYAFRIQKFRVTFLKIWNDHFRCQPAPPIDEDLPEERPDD
Please use satisfied for Ki under 900 nM and not satisfied for everything else, ties included.

Consider the worked cases shown below.
Nc1nc(NC(=O)c2ccccc2OC(F)(F)F)c([N+](=O)[O-])c(-c2ccco2)n1 ... satisfied
Nc1nc(C(=O)NCc2ccc(F)cc2)cc(-c2ccco2)n1 ... satisfied
Nc1nc(NC(=O)c2cccnc2)c([N+](=O)[O-])c(-c2ccco2)n1 ... not satisfied
Nc1nc(C(=O)NCc2ccncc2)cc(-c2ccco2)n1 ... not satisfied
Nc1nc(C(=O)NCc2cccnc2)cc(-c2ccco2)n1 ... satisfied

## Task Record COc1ccccc1C(=O)Nc1nc(N)nc(-c2ccco2)c1[N+](=O)[O-] : is its Ki strictly below 900 nM?
## Result satisfied

## Task Please indicate whether the reported Ki of Nc1nc(NC(=O)c2ccncc2)c([N+](=O)[O-])c(-c2ccco2)n1 is strictly below 900 nM.
## Result not satisfied

* * *

Parameter Ki, tested on Adenosine receptor A1 (Homo sapiens), listed per item.
Answers are plain numbers, in nM.

See these solved cases before continuing.
COc1ccc(CNC(=O)c2cc(-c3ccco3)nc(N)n2)cc1 ... 157
Cc1ccccc1CNC(=O)c1cc(-c2ccco2)nc(N)n1 ... 73
COCc1cccc(CNC(=O)c2cc(-c3ccco3)nc(N)n2)n1 ... 42

Hey, can you go through the list below and give me Ki for every item?
1. Nc1nc(C(=O)NCc2cccc(Cl)c2)cc(-c2ccco2)n1
2. COc1ccccc1CNC(=O)c1cc(-c2ccco2)nc(N)n1
3. Nc1nc(C(=O)NCc2ccco2)cc(-c2ccco2)n1

## Result
1. 12.2
2. 34.5
3. 214

* * *

- Run Description: Aqueous solubility of the compound
- Assay type: physicochemical
Observation Type: solubility (µM)
Give bare numbers, in µM.

## Task Form field: reported solubility of COCc1cccc(CNC(=O)c2cc(-c3ccco3)nc(N)n2)n1
## Result 450

* * *

- Run Description: Half life in po dosed Sprague-Dawley rat plasma
- Assay type: ADME, organism-based
Observation Type: half-life (h)
Answers are plain numbers, in h.

## Task Find the recorded half-life belonging to COCc1cccc(CNC(=O)c2cc(-c3ccco3)nc(N)n2)n1 and report it.
## Result 1
